- target: mouse melanocortin-4 receptor (mouse, UniProt P56450 1-332)
- Sequence (P56450 whole entry): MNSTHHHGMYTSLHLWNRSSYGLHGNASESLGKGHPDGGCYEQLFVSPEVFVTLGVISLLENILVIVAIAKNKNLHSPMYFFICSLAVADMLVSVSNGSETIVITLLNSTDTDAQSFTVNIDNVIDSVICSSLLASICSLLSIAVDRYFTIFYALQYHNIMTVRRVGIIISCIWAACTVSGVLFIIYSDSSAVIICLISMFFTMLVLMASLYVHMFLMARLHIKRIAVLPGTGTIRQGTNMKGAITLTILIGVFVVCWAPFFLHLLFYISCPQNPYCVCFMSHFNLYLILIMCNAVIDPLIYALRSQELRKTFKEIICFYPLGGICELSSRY
- assay summary: cell-based or functional assay
Square brackets hold non-standard residues; d marks the D form. hPhe = N[C@@H](CCc1ccccc1)C(=O)O; Nle = CCCC[C@H](N)C(=O)O; Dap = NC[C@H](N)C(=O)O
I'd appreciate it if you could supply antagonist pA2 (Schild, agonist NDP-MSH) values for the items below.
Numbers only.

Reference set, count: 2
cyclo(PRF[hPhe]RS[Nle][dP]) (SMILES CCCC[C@@H]1NC(=O)[C@H](CO)NC(=O)[C@H](CCCNC(=N)N)NC(=O)[C@H](CCc2ccccc2)NC(=O)[C@H](Cc2ccccc2)NC(=O)[C@H](CCCNC(=N)N)NC(=O)[C@@H]2CCCN2C(=O)[C@H]2CCCN2C1=O) [c[Pro-Arg-Phe-hPhe-Arg-Ser-Nle-DPro]]    9.5
cyclo(PRF[hPhe][Dap]A[Nle][dP]) (SMILES CCCC[C@@H]1NC(=O)[C@H](C)NC(=O)[C@H](CN)NC(=O)[C@H](CCc2ccccc2)NC(=O)[C@H](Cc2ccccc2)NC(=O)[C@H](CCCNC(=N)N)NC(=O)[C@@H]2CCCN2C(=O)[C@H]2CCCN2C1=O) [c[Pro-Arg-Phe-hPhe-Dap-Ala-Nle-DPro]]    9.1

Looking up cyclo(PRF[hPhe]RSF[dP]) (SMILES N=C(N)NCCC[C@@H]1NC(=O)[C@H](CCc2ccccc2)NC(=O)[C@H](Cc2ccccc2)NC(=O)[C@H](CCCNC(=N)N)NC(=O)[C@@H]2CCCN2C(=O)[C@H]2CCCN2C(=O)[C@H](Cc2ccccc2)NC(=O)[C@H](CO)NC1=O) [c[Pro-Arg-Phe-hPhe-Arg-Ser-Phe-DPro]] , I see its antagonist pA2 (Schild, agonist NDP-MSH) listed as 8.8
